- SYSTEM TESTED: mu opioid receptor peptide Mu OPR 132–143 (Homo sapiens, UniProt P35372)
- Construct: Mu OPR 132–143; purchased RS Synthesis (Louisville, KY, USA); host or cells: chemical synthesis
- RUN DESCRIPTION: biochemical
- Format: binding
METRIC NAME: Kd

Q: Entry under review: CNC[C@H](O)c1cccc(O)c1 . Reported Kd?
Ans: 60 µM

Q: Consider the molecule shown here: O=C1OC(C(O)CO)C(=O)C1=O (centres unmarked) [Dehydro Asc, dehydroascorbic acid] What is its recorded Kd?
Ans: > 1000 µM

---

- SYSTEM TESTED: insulin receptor peptide INSR 392–404 (Homo sapiens)
- Construct: purchased RS Synthesis (Louisville, KY, USA); host or cells: chemical synthesis
- RUN DESCRIPTION: biochemical
- Type: binding
METRIC NAME: Kd

Q: Quick one: Kd for CCC(=O)C(CC(C)N(C)C)(c1ccccc1)c1ccccc1 (stereo not shown) ?
Ans: > 1 mM

The reported measurements were obtained from paper PMC7504417.
